Attribution: patent US8153385B2

- targetSystem: FLJ13397 clone-derived protein (CARP) (Homo sapiens, UniProt Q9H8M7)
- Construct: A human full-length cDNA clone was expressed as a protein with an N-terminal His tag; His tag (pDEST17 Gateway vector) (N); made in house; host or cells: Escherichia coli BL21star(DE3)pLysS
- Sequence (Q9H8M7 1-445): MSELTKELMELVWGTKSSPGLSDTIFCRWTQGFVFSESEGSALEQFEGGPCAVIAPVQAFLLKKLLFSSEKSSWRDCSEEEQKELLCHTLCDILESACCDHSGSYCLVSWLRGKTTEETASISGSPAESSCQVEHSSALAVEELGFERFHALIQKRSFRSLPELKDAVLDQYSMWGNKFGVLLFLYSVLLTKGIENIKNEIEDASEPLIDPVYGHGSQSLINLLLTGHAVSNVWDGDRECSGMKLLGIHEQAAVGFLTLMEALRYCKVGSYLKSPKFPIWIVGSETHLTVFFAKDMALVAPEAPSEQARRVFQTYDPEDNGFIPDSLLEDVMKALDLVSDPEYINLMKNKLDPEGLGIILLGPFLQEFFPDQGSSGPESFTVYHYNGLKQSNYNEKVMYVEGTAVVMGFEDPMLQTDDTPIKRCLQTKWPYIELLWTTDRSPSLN
- assayOverview: SEC/MS (size exclusion chromatography / mass analysis) interaction analysis between FLJ13397 clone-derived protein and compounds
- Assay type: binding
- experimentalConditions: compound 1 μM; protein 0 μM (protein-free reference)
Entries and their spectrum intensity of the extracted mass range (compound in SEC spin column filtrate) values follow.
Give only the figure.

Observe how each entry below is paired with its result.
{"columns": ["compound", "targetSystem", "numericReadout"],
 "data": [
  ["CCCOc1ccc2nc(NC(=O)OC)[nH]c2c1 [Oxibendazole]", "FLJ13397 clone-derived protein (CARP) (Homo sapiens, UniProt Q9H8M7)", 570160],
  ["Oc1ccc(CCN2CCC(Nc3nc4ccccc4n3Cc3ccc(F)cc3)CC2)cc1 [Desmethyl-astemizole]", "FLJ13397 clone-derived protein (CARP) (Homo sapiens, UniProt Q9H8M7)", 12076364],
  ["CCC[S+]([O-])c1ccc2[nH]c(NC(=O)OC)nc2c1 (stereo not drawn) [Albendazole Sulfoxide]", "FLJ13397 clone-derived protein (CARP) (Homo sapiens, UniProt Q9H8M7)", 1514429],
  ["COC(=O)Nc1nc2ccc(S(=O)(=O)c3ccccc3)cc2[nH]1 [Fenbendazole Sulfone]", "FLJ13397 clone-derived protein (CARP) (Homo sapiens, UniProt Q9H8M7)", 4524987],
  ["COC(=O)Nc1nc2ccc([S+]([O-])c3ccccc3)cc2[nH]1 (stereo not drawn) [Oxfendazole]", "FLJ13397 clone-derived protein (CARP) (Homo sapiens, UniProt Q9H8M7)", 23723676]
]}

Recorded spectrum intensity of the extracted mass range (compound in SEC spin column filtrate) of Nc1nc2ccccc2n1Cc1ccccc1 [2-Amino-1-Benzylbenzimidazole, 2-Amino-1-benzylbenzimidazole] , please. 5598524

Same lookup for Nc1nc2ccccc2[nH]1 [2-Aminobenzimidazole] , please. 276565

Same lookup for CCCSc1ccc2nc(NC(=O)OC)[nH]c2c1 [Albendazole] , please. 99130

Same lookup for OC(c1ccccc1)(c1ccccc1)C1CCNCC1 [α,α-Diphenyl-4-piperidinomethanol] , please. 1354498

----------
- targetSystem: FLJ13397 clone-derived protein (CARP) (Homo sapiens)
- Construct: A human full-length cDNA clone was expressed as a protein with an N-terminal His tag; His tag (pDEST17 Gateway vector) (N); made in house; host or cells: Escherichia coli BL21star(DE3)pLysS
- assayOverview: SEC/MS (size exclusion chromatography / mass analysis) interaction analysis between FLJ13397 clone-derived protein and compounds
- Format: binding
- experimentalConditions: compound 250 μM; protein 47.5 μM
property: spectrum intensity of the extracted mass range (compound in SEC spin column filtrate)
Give only the figure.

Observe how each entry below is paired with its result.
{"columns": ["compound", "numericReadout"],
 "data": [
  ["OCCOCCN1CCN(C(c2ccccc2)c2ccc(Cl)cc2)CC1 (centres unmarked) [Hydroxyzine]", 1073610880],
  ["Nc1nc2ccccc2[nH]1 [2-Aminobenzimidazole]", 8155388]
]}

Recorded spectrum intensity of the extracted mass range (compound in SEC spin column filtrate) of CCCS(=O)(=O)c1ccc2nc(NC(=O)OC)[nH]c2c1 [Albendazole Sulfone] , please. 328407687

Same lookup for COC(=O)Nc1nc2ccc(C(=O)c3cccs3)cc2[nH]1 [Nocodazole] , please. 227971112

Same lookup for COC(=O)Nc1nc2ccc(C(=O)c3ccccc3)cc2[nH]1 [Mebendazole] , please. 43484997

Same lookup for COc1ccc(CCN2CCC(Nc3nc4ccccc4n3Cc3ccc(F)cc3)CC2)cc1 [Astemizole] , please. 2019252410

Same lookup for Nc1nc2ccccc2n1Cc1ccccc1 [2-Amino-1-Benzylbenzimidazole, 2-Amino-1-benzylbenzimidazole] , please. 559844

----------
- targetSystem: FLJ13397 clone-derived protein (CARP) (Homo sapiens, UniProt Q9H8M7)
- Construct: A human full-length cDNA clone was expressed as a protein with an N-terminal His tag; His tag (pDEST17 Gateway vector) (N); made in house; host or cells: Escherichia coli BL21star(DE3)pLysS
- Sequence (Q9H8M7 1-445): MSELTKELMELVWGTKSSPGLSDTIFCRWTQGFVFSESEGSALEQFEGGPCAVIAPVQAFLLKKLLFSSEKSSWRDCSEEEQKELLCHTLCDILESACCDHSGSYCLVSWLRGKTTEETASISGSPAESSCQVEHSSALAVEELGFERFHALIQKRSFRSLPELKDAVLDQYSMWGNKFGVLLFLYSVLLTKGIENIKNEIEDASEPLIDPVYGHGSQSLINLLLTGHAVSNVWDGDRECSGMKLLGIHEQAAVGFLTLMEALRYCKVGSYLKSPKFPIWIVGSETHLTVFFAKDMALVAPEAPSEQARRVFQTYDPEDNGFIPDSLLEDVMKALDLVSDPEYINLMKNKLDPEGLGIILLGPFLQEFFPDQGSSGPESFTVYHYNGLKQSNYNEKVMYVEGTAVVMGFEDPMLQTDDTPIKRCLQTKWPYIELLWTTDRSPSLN
- assayOverview: SEC/MS (size exclusion chromatography / mass analysis) interaction analysis between FLJ13397 clone-derived protein and compounds
- Assay type: binding
- experimentalConditions: compound 10 μM; protein 0 μM (protein-free reference)
Entries and their spectrum intensity of the extracted mass range (compound in SEC spin column filtrate) values follow.
Give only the figure.

Observe how each entry below is paired with its result.
{"columns": ["compound", "targetSystem", "numericReadout"],
 "data": [
  ["CCCS(=O)(=O)c1ccc2nc(NC(=O)OC)[nH]c2c1 [Albendazole Sulfone]", "FLJ13397 clone-derived protein (CARP) (Homo sapiens, UniProt Q9H8M7)", 5960539],
  ["COC(=O)Nc1nc2ccccc2[nH]1 [Carbendazim]", "FLJ13397 clone-derived protein (CARP) (Homo sapiens, UniProt Q9H8M7)", 22203544],
  ["c1ccc2[nH]c(-c3cscn3)nc2c1 [Thiabendazole]", "FLJ13397 clone-derived protein (CARP) (Homo sapiens, UniProt Q9H8M7)", 21903023],
  ["COC(=O)Nc1nc2ccc(C(=O)c3ccccc3)cc2[nH]1 [Mebendazole]", "FLJ13397 clone-derived protein (CARP) (Homo sapiens, UniProt Q9H8M7)", 525296],
  ["CCCS(=O)(=O)c1ccc2[nH]c(N)nc2c1 [2-Amino-5-N-Propylsulphonylbenzimidazole, 2-Amino-5-N-propylsulphonylbenzimidazole]", "FLJ13397 clone-derived protein (CARP) (Homo sapiens, UniProt Q9H8M7)", 1750199]
]}

Recorded spectrum intensity of the extracted mass range (compound in SEC spin column filtrate) of COC(=O)Nc1nc2ccc(S(=O)(=O)c3ccccc3)cc2[nH]1 [Fenbendazole Sulfone] , please. 9471873

Same lookup for Oc1ccc(CCN2CCC(Nc3nc4ccccc4n3Cc3ccc(F)cc3)CC2)cc1 [Desmethyl-astemizole] , please. 6489161

----------
Entries and their spectrum intensity of the extracted mass range (compound in SEC spin column filtrate) values follow.
- targetSystem: FLJ13397 clone-derived protein (CARP) (Homo sapiens)
- Construct: A human full-length cDNA clone was expressed as a protein with an N-terminal His tag; His tag (pDEST17 Gateway vector) (N); made in house; host or cells: Escherichia coli BL21star(DE3)pLysS
- Sequence (Q9H8M7 1-445): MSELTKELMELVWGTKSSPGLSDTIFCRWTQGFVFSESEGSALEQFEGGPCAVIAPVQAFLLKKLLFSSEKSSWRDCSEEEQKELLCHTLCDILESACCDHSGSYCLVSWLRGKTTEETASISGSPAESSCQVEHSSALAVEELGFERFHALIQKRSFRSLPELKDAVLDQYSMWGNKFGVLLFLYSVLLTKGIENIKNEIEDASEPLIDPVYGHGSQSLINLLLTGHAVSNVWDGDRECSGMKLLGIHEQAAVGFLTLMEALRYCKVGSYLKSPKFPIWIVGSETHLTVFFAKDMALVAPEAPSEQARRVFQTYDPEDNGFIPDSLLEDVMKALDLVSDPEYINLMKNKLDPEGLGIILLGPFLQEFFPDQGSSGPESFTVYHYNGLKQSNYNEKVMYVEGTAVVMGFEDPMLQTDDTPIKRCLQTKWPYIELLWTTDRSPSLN
- assayOverview: SEC/MS (size exclusion chromatography / mass analysis) interaction analysis between FLJ13397 clone-derived protein and compounds
- Format: binding
- experimentalConditions: compound 10 μM; protein 47.5 μM
Give only the figure.

{"columns": ["molecule", "numericReadout"],
 "data": [
  ["Nc1nc2ccccc2n1Cc1ccccc1", 7550402]
]}

Recorded spectrum intensity of the extracted mass range (compound in SEC spin column filtrate) of "CCCSc1ccc2nc(NC(=O)OC)[nH]c2c1" , please. 603904

Same lookup for OCCOCCN1CCN(C(c2ccccc2)c2ccc(Cl)cc2)CC1 (stereo not drawn) [Hydroxyzine] , please. 115214088
